System: Talaromyces marneffei
Assay Comment: Antifungal activity against Talaromyces marneffei assessed as growth inhibition by serial plate dilution method
Type: functional
Outcome Measure: MIC (µg/mL)
Report the value in µg/mL with no unit label.

Reference set, count: 2
Input COc1ccc(C2=NN(c3nc(-c4ccc([N+](=O)[O-])cc4)cs3)C(c3ccc(SC)cc3)C2)cc1OC (stereo not drawn) . Output MIC: 25

Input COc1ccc(C2=NN(c3nc(-c4ccc([N+](=O)[O-])cc4)cs3)C(c3ccc(-c4ccc(Cl)cc4[N+](=O)[O-])o3)C2)cc1OC (stereo not drawn) . Output MIC: 12.5

In the following, a different compound is considered.
Input CSc1ccc(C2CC(c3ccc(Cl)cc3)=NN2c2nc(-c3ccc([N+](=O)[O-])cc3)cs2)cc1 (stereo not drawn) . Output MIC: 6.25
